Reported GI50 by item:
System: HCT-116
Experiment: NCI tumour cell line growth inhibition, 48 h
Active and inactive are the calls of the source. Rule as the data show it: active = GI50 up to about 1.1 µM and inactive = higher.
assayEndpoint: GI50

INSERT INTO measurements (molecule, assayresult) VALUES
  ('COc1ccc(C(=O)N2CCc3c([nH]c4ccccc34)C2C(=O)O)o1 (stereo not drawn)', '> 10 µM (inactive)'),
  ('O=C1c2c(ccc3c2CCC3)CC12Cc1cc3c(cc1C2)CCC3', '> 100 µM (inactive)'),
  ('BrC/C=C/C[P+](c1ccccc1)(c1ccccc1)c1ccccc1', '3.97 µM (inactive)'),
  ('COc1ccc2[nH]c3c4c(ccc3c2c1)C(=O)C=CC4=O', '3.62 µM (inactive)'),
  ('Cc1cccc(-c2cc(=O)c3cc(C)c(C)c(C(=O)O)c3o2)c1', '> 100 µM (inactive)'),
  ('C1=Cc2cccc3occ(c23)C=C1', '46.3 µM (inactive)'),
  ('O=[N+]([O-])/C=C/c1cc2ccc3ccccc3c2[nH]1', '1.52 µM (inactive)'),
  ('O=C1NC(=S)NC(=O)C1=Cc1ccc[nH]1', '3.48 µM (inactive)');

----------
Test system: U-251
Assay: NCI tumour cell line growth inhibition, 48 h
The source made the active and inactive calls. No stated cut-off is given here; in the data, active = GI50 up to about 1.1 µM and inactive = higher.
assayEndpoint: GI50

INSERT INTO results (molecule, testtarget, assayresult) VALUES
  ('O=C1c2ccccc2-c2ccc(O)cc21', 'U-251', '26.7 µM (inactive)'),
  ('Cc1nc(N)c(N2CCN(C(=O)O)CC2)c(O)n1', 'U-251', '> 100 µM (inactive)'),
  ('Cc1cccc(-n2c(=S)[nH]c3c(sc(=O)n3-c3ccccc3C)c2=O)c1', 'U-251', '> 100 µM (inactive)'),
  ('Nn1nnc2ccccc21', 'U-251', '> 100 µM (inactive)'),
  ('NC1N=C(c2ccc(Cl)cc2)C2=C(N1)c1ccccc1CC2 (configuration not stated)', 'U-251', '25.6 µM (inactive)'),
  ('O=C1C(c2ccccc2)=[N+]([O-])c2cc([N+](=O)[O-])ccc21', 'U-251', '27.7 µM (inactive)'),
  ('N#Cc1nc(-c2ccccc2C(=O)O)oc1N', 'U-251', '> 100 µM (inactive)'),
  ('COC(=O)Nc1nc(=O)c2ccccc2[nH]1', 'U-251', '43.8 µM (inactive)'),
  ('CC(CO)(CBr)COC(=O)c1cc(Br)c(N)c(Br)c1 (configuration not stated)', 'U-251', '54 µM (inactive)'),
  ('CC(NC1=CC(=O)c2cccnc2C1=O)C(O)c1ccccc1 (configuration not stated)', 'U-251', '2.78 µM (inactive)'),
  ('CCOC(=O)C[n+]1cccc(C2(c3cc4ccccc4[nH]3)OCCO2)c1', 'U-251', '> 100 µM (inactive)'),
  ('C1CCC(CC2CCC(NC3=NCCO3)CC2)CC1 (configuration not stated)', 'U-251', '18 µM (inactive)');

----------
Test system: U-251
Assay: NCI tumour cell line growth inhibition, 48 h
Activity calls are given as the source filed them. No stated cut-off is given here; in the data, active = GI50 up to about 1.1 µM and inactive = higher. Residues, ends and D or L forms follow the SMILES beside them. *: point of attachment. Boc = CC(C)(C)OC(=O)*
Outcomes: active, inactive

INSERT INTO results (compound, grouplabel) VALUES
  ('Cc1cn(C2CC(Br)C(COC(c3ccccc3)(c3ccccc3)c3ccccc3)O2)c(=O)[nH]c1=O (centres undefined)', 'inactive'),
  ('COC(=O)C1=C(C(=O)OC)SC(=C2SCSC3=C2SC(C(=O)OC)=C(C(=O)OC)C32SC3=C(CCCC3)S2)S1', 'inactive'),
  ('CCOC(=O)C1=C(C)C(C(=O)OC)/C(=C/c2cccc3cccnc23)C1=O (centres undefined)', 'inactive'),
  ('CC1(C)N=c2c(ncn2Cc2ccccc2)=C(C(N)=O)N1', 'inactive'),
  ('O=C(CCC1OCCO1)Nc1cc(NCc2ccccc2)ccc1OCc1ccccc1', 'inactive'),
  ('[N-]=[N+]=Nc1c(N2CCOCC2)c(Cl)nc2ccccc12', 'inactive'),
  ('COC(=O)C(Cc1c[nH]c2ccccc12)NC(=O)C(Cc1c[nH]c2ccccc12)NC(=O)C(Cc1c[nH]c2ccccc12)NC(=O)C(Cc1c[nH]c2ccccc12)NC(=O)OC(C)(C)C (centres undefined) (Boc-WWWW-OMe; configuration not given here)', 'inactive'),
  ('CC[C@@]1(O)C[C@H](OC2CC(N(C)C)C(O)C(C)O2)c2c(O)c3c(c(O)c2[C@H]1OC1CC(N(C)C)C(O)C(C)O1)C(=O)c1cccc(O)c1C3=O (some centres undefined)', 'active'),
  ('Cc1c(N)nc(C(CC(N)=O)NCC(N)C(N)=O)nc1C(=O)NC(C(=O)NC(C)C(O)C(C)C(=O)NC(C(=O)NCCc1nc(-c2nc(C(=O)NCCCNCCCCN)cs2)cs1)C(C)O)C(OC1OC(CO)C(O)C(O)C1OC1OC(CO)C(O)C(OC(N)=O)C1O)c1c[nH]cn1 (centres undefined)', 'inactive'),
  ('CCCCCCCCCCCCCCCCCCNc1ccn(C2OC(COP(=O)(O)OCC3OC(n4cc(C)c(=O)[nH]c4=O)CC3F)C(O)C2O)c(=O)n1 (centres undefined)', 'inactive'),
  ('CC(=O)OCC1OC(O[C@@H]2C[C@H]3C(C)(C)[C@@H](OC(C)=O)CC[C@]3(C)[C@H]3CC[C@]45C[C@]4(CC[C@H]5[C@@H](C)C[C@@H](O)[C@H](O)C(C)(C)F)[C@@]32C)C(O)C(O)C1O (some centres undefined)', 'inactive'),
  ('O=[N+]([O-])c1ccc(Cl)c(CNc2ncnc3c2ncn3C2CCCCO2)c1 (centres undefined)', 'inactive'),
  ('Cc1cccc(C)c1NC(=O)/C(Cc1nc2ccc([N+](=O)[O-])cc2nc1O)=N\NC(N)=O', 'inactive'),
  ('CCOC(=O)c1[nH]c(CN(C)Cc2[nH]c(C(=O)OCC)c(C)c2C(=O)OCc2ccccc2)c(C(=O)OCc2ccccc2)c1C', 'inactive');
